Listed here: items and their measured fold repression.
study-target: T1, ECF15_436
T1 chain: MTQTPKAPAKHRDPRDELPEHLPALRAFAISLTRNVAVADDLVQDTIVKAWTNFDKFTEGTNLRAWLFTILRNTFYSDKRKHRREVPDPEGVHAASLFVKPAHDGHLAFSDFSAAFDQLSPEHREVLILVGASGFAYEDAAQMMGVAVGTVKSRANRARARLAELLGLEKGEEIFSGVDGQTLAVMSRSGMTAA

Some binders with recorded fold repression:
1) AS15_524 (protein) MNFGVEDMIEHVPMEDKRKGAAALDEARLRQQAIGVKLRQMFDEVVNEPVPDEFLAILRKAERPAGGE ... 16.7
2) AS37_2513 (protein) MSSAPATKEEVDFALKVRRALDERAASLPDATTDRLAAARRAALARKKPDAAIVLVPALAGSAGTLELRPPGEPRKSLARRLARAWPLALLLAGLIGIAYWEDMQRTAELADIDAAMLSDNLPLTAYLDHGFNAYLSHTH ... 5.3
3) AS27_1331 (protein) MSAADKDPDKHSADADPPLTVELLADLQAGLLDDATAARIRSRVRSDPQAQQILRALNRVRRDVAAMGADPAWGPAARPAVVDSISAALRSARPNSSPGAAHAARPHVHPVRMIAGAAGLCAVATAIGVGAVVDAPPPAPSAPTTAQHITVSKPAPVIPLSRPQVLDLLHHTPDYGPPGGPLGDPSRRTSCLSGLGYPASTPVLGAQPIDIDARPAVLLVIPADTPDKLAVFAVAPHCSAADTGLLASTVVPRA ... 4.26

// below: fold repression requested for another binder
Given the binder AS03_1198 (protein) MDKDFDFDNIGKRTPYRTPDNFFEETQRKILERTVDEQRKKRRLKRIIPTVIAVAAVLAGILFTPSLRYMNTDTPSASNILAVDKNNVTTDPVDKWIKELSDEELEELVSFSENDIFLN , what is its reported fold repression?
1.11
